Reported values of isobaric coefficient of expansion for individual entries
# assayExplanation: isobaric coefficient of expansion
# testParameters: 328.15 K; 50000 kPa; Liquid; DSC

Consider the reported isobaric coefficient of expansion for these compounds:
CCCCCCCCCC [decane]; 0.000797 1/K
CCCCCCCCCCC [undecane]; 0.000775 1/K
c1ccccc1 [benzene]; 0.000966 1/K

Value of isobaric coefficient of expansion reported for the compound CCCCCCCCCCCCC [tridecane] is 0.000728 1/K

For reference, reported isobaric coefficient of expansion for CCCCCCCCCCCCCCC [pentadecane] stands at 0.00071 1/K

Record CCCCCCCCCCCCCC [tetradecane] . Reported isobaric coefficient of expansion: 0.00072 1/K

In plain terms, ClC(Cl)(Cl)Cl [tetrachloromethane] has a documented isobaric coefficient of expansion of 0.000965 1/K

Record summary for CCCCCCCCC [nonane] : reported isobaric coefficient of expansion = 0.000822 1/K

The recorded isobaric coefficient of expansion for entry CCCCCCCCCCCC [dodecane] equals 0.000757 1/K

----------
Measured isobaric coefficient of expansion, listed per entry.
# assayExplanation: isobaric coefficient of expansion
# testParameters: 348.15 K; 35000 kPa; Liquid; DSC

CCCCCCCCC [nonane]; 0.0009 1/K
CCCCCCCCCC [decane]; 0.000865 1/K

The compound listed as CCCCCCCCCCCCCC [tetradecane] shows isobaric coefficient of expansion equal to 0.000768 1/K

The recorded isobaric coefficient of expansion for CCCCCCCCCCCCC [tridecane] is 0.000784 1/K

Kindly note the recorded isobaric coefficient of expansion for c1ccccc1 [benzene] , which is 0.00104 1/K

What the record says about CCCCCCCCCCC [undecane] : isobaric coefficient of expansion is 0.000833 1/K

Given item CCCCCCCCCCCC [dodecane] , the value recorded as its isobaric coefficient of expansion is 0.000813 1/K

// CCCCCCCCCCCCCCC [pentadecane] : isobaric coefficient of expansion value = 0.000758 1/K

isobaric coefficient of expansion recorded for this compound, ClC(Cl)(Cl)Cl [tetrachloromethane] , is 0.00105 1/K

----------
# assayExplanation: isobaric coefficient of expansion
# testParameters: 298.15 K; 25000 kPa; Liquid; DSC
Listed next: entries and their corresponding isobaric coefficient of expansion.

Examples with answers:
CCCCCCCCCCCCCCC [pentadecane]; 0.000805 1/K
CCCCCCCCCCCC [dodecane]; 0.000848 1/K
c1ccccc1 [benzene]; 0.00108 1/K

# isobaric coefficient of expansion of ClC(Cl)(Cl)Cl [tetrachloromethane] = 0.00107 1/K

Per the record, CCCCCCCCCCCCC [tridecane] has isobaric coefficient of expansion of 0.000812 1/K

Looking up CCCCCCCCCCCCCC [tetradecane] , I see its isobaric coefficient of expansion listed as 0.000815 1/K

GET /value?item= CCCCCCCCCCC [undecane] &field=isobaric coefficient of expansion returns 0.000865 1/K

Please fill in: isobaric coefficient of expansion reported for CCCCCCCCC [nonane] = 0.000927 1/K

Consider CCCCCCCCCC [decane] . Its measured isobaric coefficient of expansion is 0.000896 1/K

----------
Item-by-item account of isobaric coefficient of expansion
# assayExplanation: isobaric coefficient of expansion
# testParameters: 288.15 K; 5000 kPa; Liquid; DSC

CCCCCCCCCCCCC; 0.00088 1/K
CCCCCCCCCCCC; 0.000925 1/K
CCCCCCCCCC; 0.000985 1/K

Reported isobaric coefficient of expansion for CCCCCCCCCCC was 0.000948 1/K

Noted for CCCCCCCCC : its isobaric coefficient of expansion reads 0.00103 1/K

Measured isobaric coefficient of expansion, ClC(Cl)(Cl)Cl : 0.00116 1/K

----------
# assayExplanation: isobaric coefficient of expansion
# testParameters: 348.15 K; 10000 kPa; Liquid; DSC
Below: a set of entries, each annotated with reported isobaric coefficient of expansion.

Recorded result, CCCCCCCCCCCCCC [tetradecane] , isobaric coefficient of expansion: 0.0009 1/K

The measured isobaric coefficient of expansion associated with CCCCCCCCCC [decane] reads 0.00103 1/K

Item: CCCCCCCCCCCCC [tridecane] | isobaric coefficient of expansion: 0.000935 1/K

CCCCCCCCCCC [undecane] yielded isobaric coefficient of expansion of 0.000991 1/K

----------
# assayExplanation: isobaric coefficient of expansion
# testParameters: 318.15 K; 30000 kPa; Liquid; DSC
Items are presented alongside their recorded isobaric coefficient of expansion.

CCCCCCCCC [nonane]; 0.000915 1/K
CCCCCCCCCCCCC [tridecane]; 0.000799 1/K
CCCCCCCCCCC [undecane]; 0.000851 1/K
CCCCCCCCCC [decane]; 0.000883 1/K
c1ccccc1 [benzene]; 0.00106 1/K
ClC(Cl)(Cl)Cl [tetrachloromethane]; 0.00106 1/K
CCCCCCCCCCCCCC [tetradecane]; 0.000791 1/K
CCCCCCCCCCCC [dodecane]; 0.000831 1/K

CCCCCCCCCCCCCCC [pentadecane] yielded isobaric coefficient of expansion of 0.000786 1/K

----------
# assayExplanation: isobaric coefficient of expansion
# testParameters: 308.15 K; 40000 kPa; Liquid; DSC
Measured isobaric coefficient of expansion, listed per entry.

Reference set, count: 8
CCCCCCCCCCCCCC [tetradecane]; 0.000761 1/K
c1ccccc1 [benzene]; 0.00101 1/K
CCCCCCCCCCC [undecane]; 0.000806 1/K
CCCCCCCCC [nonane]; 0.00086 1/K
ClC(Cl)(Cl)Cl [tetrachloromethane]; 0.00101 1/K
CCCCCCCCCC [decane]; 0.000834 1/K
CCCCCCCCCCCCCCC [pentadecane]; 0.000751 1/K
CCCCCCCCCCCC [dodecane]; 0.000792 1/K

We now examine a further molecule.
For CCCCCCCCCCCCC [tridecane] the molecule record lists isobaric coefficient of expansion as 0.000765 1/K

----------
# assayExplanation: isobaric coefficient of expansion
# testParameters: 328.15 K; 40000 kPa; Liquid; DSC
// reported isobaric coefficient of expansion per item

Some compounds with known isobaric coefficient of expansion results, for comparison:
c1ccccc1 [benzene]; 0.00101 1/K
CCCCCCCCCCCC [dodecane]; 0.000791 1/K
CCCCCCCCCC [decane]; 0.000833 1/K
CCCCCCCCCCCCCC [tetradecane]; 0.000753 1/K
CCCCCCCCC [nonane]; 0.000865 1/K
CCCCCCCCCCCCC [tridecane]; 0.000761 1/K
CCCCCCCCCCC [undecane]; 0.000806 1/K
ClC(Cl)(Cl)Cl [tetrachloromethane]; 0.00101 1/K

For the next question, use this compound.
isobaric coefficient of expansion reported for this compound CCCCCCCCCCCCCCC [pentadecane] : 0.000744 1/K

----------
# assayExplanation: isobaric coefficient of expansion
# testParameters: 318.15 K; 25000 kPa; Liquid; DSC
The entries below come with measured isobaric coefficient of expansion values attached.

CCCCCCCCCCCCCC [tetradecane]; 0.000815 1/K
CCCCCCCCCCCCCCC [pentadecane]; 0.000803 1/K
CCCCCCCCCCCCC [tridecane]; 0.000818 1/K
c1ccccc1 [benzene]; 0.00109 1/K
ClC(Cl)(Cl)Cl [tetrachloromethane]; 0.00109 1/K

For CCCCCCCCC [nonane] the molecule record lists isobaric coefficient of expansion as 0.000941 1/K

Form field isobaric coefficient of expansion, entry CCCCCCCCCCCC [dodecane] : 0.000851 1/K

The measured isobaric coefficient of expansion associated with CCCCCCCCCC [decane] reads 0.000907 1/K

get_value(item= CCCCCCCCCCC [undecane] , readout=isobaric coefficient of expansion) returns 0.000874 1/K

----------
# assayExplanation: isobaric coefficient of expansion
# testParameters: 318.15 K; 45000 kPa; Liquid; DSC
assayReadout: isobaric coefficient of expansion

Solved entries (count: 4):
CCCCCCCCCCCCCC; 0.000738 1/K
CCCCCCCCCCC; 0.000787 1/K
CCCCCCCCCC; 0.000815 1/K
CCCCCCCCCCCCC; 0.000748 1/K

isobaric coefficient of expansion in this record for ClC(Cl)(Cl)Cl : 0.000986 1/K

Reported isobaric coefficient of expansion for CCCCCCCCCCCCCCC was 0.000731 1/K

// recorded isobaric coefficient of expansion for CCCCCCCCC : 0.000841 1/K

The compound listed as c1ccccc1 has a reported isobaric coefficient of expansion of 0.000989 1/K

Summary for this compound, CCCCCCCCCCCC : isobaric coefficient of expansion is 0.000768 1/K

----------
# assayExplanation: isobaric coefficient of expansion
# testParameters: 288.15 K; 25000 kPa; Liquid; DSC
Here, each record is paired with measured isobaric coefficient of expansion data.

// field: isobaric coefficient of expansion; key: CCCCCCCCCCC [undecane] ; value = 0.000856 1/K

CCCCCCCCCC [decane] yielded isobaric coefficient of expansion of 0.000886 1/K

Query CCCCCCCCCCCC [dodecane] yields isobaric coefficient of expansion of 0.000842 1/K

For ClC(Cl)(Cl)Cl [tetrachloromethane] the compound record lists isobaric coefficient of expansion as 0.00105 1/K

For reference, reported isobaric coefficient of expansion for CCCCCCCCC [nonane] stands at 0.000917 1/K

// field: isobaric coefficient of expansion; key: CCCCCCCCCCCCC [tridecane] ; value = 0.000811 1/K
